MEASURED TARGET: C-X-C chemokine receptor type 3 (Homo sapiens) (UniProt P49682)
PROCEDURE DETAILS: Positive allosteric modulation of ProLink1-tagged wild type CXCR3 (unknown origin) expressed in HEK293T cells assessed as beta-arrestin-2 recruitment incubated for 4 hrs by chemiluminescence-based microplate reader method
Assay type: cell-based
MEASUREMENT CONDITIONS: HEK-293T
Activity calls are given as the source filed them. No cut-off for these calls is given here.
MEASUREMENT LABEL: pEC50

CC(C)(C)OC(=O)N[C@@H](CCCCNC(=O)[C@@H]1Cc2ccccc2CN1C(=O)CCCc1ccccc1)C(=O)NCC(c1ccccc1)c1ccccc1 | inactive
CC(C)(C)OC(=O)N[C@@H](CCCCNC(=O)[C@@H]1Cc2ccccc2CN1C(=O)CCC(=O)c1ccc(S(C)(=O)=O)cc1)C(=O)NCC(c1ccccc1)c1ccccc1 | inactive
CC(C)(C)OC(=O)N[C@@H](CCCCNC(=O)[C@@H]1Cc2ccccc2CN1C(=O)CCC(=O)c1ccco1)C(=O)NCC(c1ccccc1)c1ccccc1 | inactive

----------
MEASURED TARGET: UniProtKB P49682
Sequence (whole entry): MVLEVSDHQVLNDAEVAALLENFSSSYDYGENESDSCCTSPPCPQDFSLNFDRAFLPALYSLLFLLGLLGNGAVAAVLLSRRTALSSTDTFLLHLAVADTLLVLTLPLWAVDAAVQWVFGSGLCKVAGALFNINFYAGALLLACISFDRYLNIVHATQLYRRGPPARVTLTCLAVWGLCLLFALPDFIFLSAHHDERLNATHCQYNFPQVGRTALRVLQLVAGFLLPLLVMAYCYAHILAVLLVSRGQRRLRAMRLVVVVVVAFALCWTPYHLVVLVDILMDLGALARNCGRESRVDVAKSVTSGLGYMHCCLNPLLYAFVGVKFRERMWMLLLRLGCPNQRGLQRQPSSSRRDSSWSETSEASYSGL
PROCEDURE DETAILS: Positive allosteric modulation of ProLink1-tagged wild type CXCR3 (unknown origin) expressed in HEK293T cells assessed as beta-arrestin-2 recruitment incubated for 4 hrs by chemiluminescence-based microplate reader method relative to CXCL11
Assay type: cell-based
MEASUREMENT CONDITIONS: HEK-293T
The source made the active and inactive calls. No cut-off for these calls is given here.
MEASUREMENT LABEL: Efficacy

Here's what some known entries look like.
CC(C)(C)OC(=O)N[C@@H](CCCCNC(=O)[C@@H]1Cc2ccccc2CN1)C(=O)NCC(c1ccccc1)c1ccccc1 | 31%
CC(C)(C)OC(=O)N[C@@H](CCCCNC(=O)[C@@H]1Cc2ccccc2CN1C(=O)CCCC(=O)c1ccccc1)C(=O)NCC(c1ccccc1)c1ccccc1 | 20%
CN1CCN(C(=O)CCC(=O)N2Cc3ccccc3C[C@H]2C(=O)NCCCC[C@H](NC(=O)OC(C)(C)C)C(=O)NCC(c2ccccc2)c2ccccc2)CC1 | inactive
CC(C)(C)OC(=O)N[C@@H](CCCCNC(=O)[C@@H]1Cc2ccccc2CN1C(=O)CCC(=O)N1CCOCC1)C(=O)NCC(c1ccccc1)c1ccccc1 | inactive
N[C@@H](CCCCNC(=O)[C@@H]1Cc2ccccc2CN1)C(=O)NCC(c1ccccc1)c1ccccc1 | 14%

Moving on to another compound below.
Fill in Efficacy for CC(C)(C)OC(=O)N[C@H](CCCCNC(=O)[C@@H]1Cc2ccccc2CN1C(=O)CCC(=O)c1ccccc1)C(=O)NCC(c1ccccc1)c1ccccc1 tested with UniProtKB P49682. 16%

----------
MEASURED TARGET: C-X-C chemokine receptor type 3 (Homo sapiens) (UniProt P49682)
PROCEDURE DETAILS: Positive allosteric modulation of ProLink1-tagged wild type CXCR3 (unknown origin) expressed in HEK293T cells assessed as beta-arrestin-2 recruitment incubated for 4 hrs by chemiluminescence-based microplate reader method relative to CXCL11
Type: cell-based
MEASUREMENT CONDITIONS: HEK-293T
The source made the active and inactive calls. No cut-off for these calls is given here.
MEASUREMENT LABEL: Efficacy

CC(C)(C)OC(=O)N[C@@H](CCCCNC(=O)[C@@H]1Cc2ccccc2CN1C(=O)CCC(=O)c1ccc(S(C)(=O)=O)cc1)C(=O)NCC(c1ccccc1)c1ccccc1 | inactive
CC(C)(C)OC(=O)N[C@@H](CCCCNC(=O)[C@@H]1Cc2ccccc2CN1C(=O)CCC(=O)c1ccc(F)cc1)C(=O)NCC(c1ccccc1)c1ccccc1 | inactive
CC(C)(C)OC(=O)N[C@@H](CCCCNC(=O)[C@@H]1Cc2ccccc2CN1C(=O)CCc1ccccc1)C(=O)NCC(c1ccccc1)c1ccccc1 | 19%

----------
MEASURED TARGET: UniProt P49682
PROCEDURE DETAILS: Positive allosteric modulation of human CXCR3 expressed in HEK293T cell membranes after 30 mins by [35S]GTPgammaS incorporation assay relative to CXCL11
Format: functional
MEASUREMENT CONDITIONS: HEK-293T
The source made the active and inactive calls. No cut-off for these calls is given here.
MEASUREMENT LABEL: Efficacy

Here's what some known entries look like.
NCCCC[C@H](NC(=O)[C@@H]1Cc2ccccc2CN1C(=O)CCC(=O)c1ccccc1)C(=O)NCC(c1ccccc1)c1ccccc1.O=C(O)C(F)(F)F | 109%
NCCCC[C@@H](NC(=O)[C@@H]1Cc2ccccc2CN1C(=O)CCC(=O)c1ccccc1)C(=O)NCC(c1ccccc1)c1ccccc1 | 85%
CC(C)(C)OC(=O)N[C@@H](CCCCNC(=O)[C@@H]1Cc2ccccc2CN1C(=O)CCC(=O)c1cccs1)C(=O)NCC(c1ccccc1)c1ccccc1 | inactive
COc1ccc(C(=O)CCC(=O)N2Cc3ccccc3C[C@H]2C(=O)NCCCC[C@H](NC(=O)OC(C)(C)C)C(=O)NCC(c2ccccc2)c2ccccc2)cc1OC | 18%
CC(C)(C)OC(=O)N[C@@H](CCCCNC(=O)[C@@H]1Cc2ccccc2CN1C(=O)CCCC(=O)c1ccccc1)C(=O)NCC(c1ccccc1)c1ccccc1 | inactive
CC(C)(C)OC(=O)N[C@@H](CCCCNC(=O)[C@@H]1Cc2ccccc2CN1C(=O)CCC(=O)c1ccco1)C(=O)NCC(c1ccccc1)c1ccccc1 | inactive

Supply Efficacy value. Item: N[C@@H](CCCCNC(=O)[C@@H]1Cc2ccccc2CN1)C(=O)NCC(c1ccccc1)c1ccccc1 40%

----------
MEASURED TARGET: C-X-C chemokine receptor type 3 (Homo sapiens)
Sequence (whole entry): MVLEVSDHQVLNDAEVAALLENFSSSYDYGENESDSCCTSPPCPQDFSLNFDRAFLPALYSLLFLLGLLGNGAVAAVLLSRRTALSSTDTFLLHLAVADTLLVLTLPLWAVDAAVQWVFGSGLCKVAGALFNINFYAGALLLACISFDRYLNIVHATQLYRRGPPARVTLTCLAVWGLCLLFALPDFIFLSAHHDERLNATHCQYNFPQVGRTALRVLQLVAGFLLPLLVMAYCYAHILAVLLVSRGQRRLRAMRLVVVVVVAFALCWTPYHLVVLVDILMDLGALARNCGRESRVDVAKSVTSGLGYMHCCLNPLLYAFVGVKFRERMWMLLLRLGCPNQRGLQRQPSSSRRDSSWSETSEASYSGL
PROCEDURE DETAILS: Positive allosteric modulation of human CXCR3 expressed in HEK293T cell membranes after 30 mins by [35S]GTPgammaS incorporation assay relative to CXCL11
Format: functional
MEASUREMENT CONDITIONS: HEK-293T
The source made the active and inactive calls. The calls are words filed in the database; no cut-off is given here.
MEASUREMENT LABEL: Efficacy

CC(C)(C)OC(=O)N[C@@H](CCCCNC(=O)[C@@H]1Cc2ccccc2CN1C(=O)CCC(=O)N1CCCCC1)C(=O)NCC(c1ccccc1)c1ccccc1 | inactive
CC(C)(C)OC(=O)N[C@@H](CCCCNC(=O)[C@@H]1Cc2ccccc2CN1C(=O)CCC(=O)c1ccc(S(C)(=O)=O)cc1)C(=O)NCC(c1ccccc1)c1ccccc1 | 25%
CC(C)(C)OC(=O)N[C@@H](CCCCNC(=O)[C@@H]1Cc2ccccc2CN1C(=O)CCCc1ccccc1)C(=O)NCC(c1ccccc1)c1ccccc1 | 29%
CC(=O)CCC(=O)N1Cc2ccccc2C[C@H]1C(=O)NCCCC[C@H](NC(=O)OC(C)(C)C)C(=O)NCC(c1ccccc1)c1ccccc1 | inactive

----------
MEASURED TARGET: C-X-C chemokine receptor type 3 (Homo sapiens) (UniProt P49682)
Sequence (whole entry): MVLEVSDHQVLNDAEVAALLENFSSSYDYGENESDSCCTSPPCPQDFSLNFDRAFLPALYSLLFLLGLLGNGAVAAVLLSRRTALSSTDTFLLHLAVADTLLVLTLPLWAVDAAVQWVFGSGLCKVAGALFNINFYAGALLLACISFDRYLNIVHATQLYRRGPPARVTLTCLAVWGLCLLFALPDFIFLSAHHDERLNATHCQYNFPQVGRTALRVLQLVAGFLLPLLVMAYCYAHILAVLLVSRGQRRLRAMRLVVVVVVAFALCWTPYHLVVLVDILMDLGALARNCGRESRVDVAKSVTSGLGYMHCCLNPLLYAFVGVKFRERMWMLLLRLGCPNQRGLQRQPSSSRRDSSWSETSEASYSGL
PROCEDURE DETAILS: Positive allosteric modulation of ProLink2-tagged wild type CXCR3 (unknown origin) expressed in HEK293T cells assessed as beta-arrestin-2 recruitment incubated for 4 hrs by chemiluminescence-based microplate reader method relative to CXCL11
Format: cell-based
MEASUREMENT CONDITIONS: HEK-293T
MEASUREMENT LABEL: Efficacy (%)

Here's what some known entries look like.
CC(=O)CCC(=O)N1Cc2ccccc2C[C@H]1C(=O)NCCCC[C@H](NC(=O)OC(C)(C)C)C(=O)NCC(c1ccccc1)c1ccccc1 | 63
N[C@@H](CCCCNC(=O)[C@@H]1Cc2ccccc2CN1)C(=O)NCC(c1ccccc1)c1ccccc1 | 85
CC(C)(C)OC(=O)N[C@@H](CCCCNC(=O)[C@@H]1Cc2ccccc2CN1C(=O)CCC(=O)c1ccccc1)C(=O)NCC(c1ccccc1)c1ccccc1 | 66

A. CC(C)(C)OC(=O)N[C@@H](CCCCNC(=O)[C@@H]1Cc2ccccc2CN1)C(=O)NCC(c1ccccc1)c1ccccc1
B. CC(C)(C)OC(=O)N[C@@H](CCCCNC(=O)[C@@H]1Cc2ccccc2CN1C(=O)CCc1ccccc1)C(=O)NCC(c1ccccc1)c1ccccc1
Endpoint returns whichever of A and B has the numerically higher Efficacy. Give the label of your selection. A
